Collected pEC50 values appear next to each entry.
test system: Human immunodeficiency virus 1; assay: Antiviral activity against HIV1 infected in human CEM-SS cells assessed as reduction in virus-induced cytopathic effect after 6 days by MTS assay; format: functional, cell-based; conditions: Human immunodeficiency virus 1, CEM-SS, 144 h
# pEC50 is unitless: minus log10 of the molar concentration; print number only

CCc1c(CC2CCCCC2)n(COCc2cccc(Cl)c2F)c(=O)n(O)c1=O = 5.74
CCc1c(CC2CCCCC2)n(COCc2ccccc2)c(=O)n(O)c1=O = 6.25

Then this compound:
Input: Form field - read-out: pEC50; system: Human immunodeficiency virus 1; submitted item: CCc1c(CC2CCCCC2)n(COCc2ccc(F)cc2)c(=O)n(O)c1=O
Output: 6.49
